Value source: patent US20250154686A1

# TARGET OR SYSTEM: Bcl-2 protein (Recombinant Human Bcl-2 Protein) (Homo sapiens, UniProt P10415)
# Construct: purchased Novus Biologicals NBP2-34889
# Sequence (P10415 whole entry): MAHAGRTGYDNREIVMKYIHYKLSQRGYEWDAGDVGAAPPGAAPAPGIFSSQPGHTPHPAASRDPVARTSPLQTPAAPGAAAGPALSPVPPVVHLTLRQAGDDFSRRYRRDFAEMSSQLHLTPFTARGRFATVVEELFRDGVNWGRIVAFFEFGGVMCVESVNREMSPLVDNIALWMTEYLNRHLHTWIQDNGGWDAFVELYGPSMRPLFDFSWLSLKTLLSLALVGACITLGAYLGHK
# EXPERIMENTAL DETAILS: AS-MS evaluation of binding of the Example 4 mixture library (1200 compounds/well) to Bcl-2, ASMS ratio (%)
# DETAILS: AS-MS, Example 4 mixture library, Bcl-2, replicate n = 1
QUANTITY: ASMS ratio (%) n = 1

Please review the entries below; each comes with its answer.
RECORD SMILES | TARGET OR SYSTEM | VALUE UNITS | ASMS ratio (%) n = 1
CCOc1cncc(-c2ccccc2CN2CCN(c3ccc(C(=O)NS(=O)(=O)CCC(F)(F)F)cc3)CC2)c1 | Bcl-2 protein (Recombinant Human Bcl-2 Protein) (Homo sapiens, UniProt P10415) | % | 0.0
CCOc1cccc(-c2ccc(CN3CCN(c4ccc(C(=O)NS(=O)(=O)CCC(F)(F)F)cc4)CC3)c(CC)c2)c1 | Bcl-2 protein (Recombinant Human Bcl-2 Protein) (Homo sapiens, UniProt P10415) | % | 0.0

(1) CCOc1cccc(-c2ccc(CN3CCN(c4ccc(C(=O)NS(=O)(=O)C(C)(C)C)nn4)CC3)c3ccccc23)c1
(2) CCOc1cccc(-c2ccc(C(=O)N3CCN(c4ccc(C(=O)NS(=O)(=O)c5ccc(NCCSc6ccccc6)c(C(F)(F)F)c5)nn4)CC3)cc2C)c1
Would you mind telling me which has the lower recorded ASMS ratio (%) n = 1 between 1 and 2 ? Give the label under which the chosen entry appears.
1

(a) CCOc1cccc(-c2cc(CN3CCN(c4ccc(C(=O)NS(=O)(=O)C(C)(C)C)nn4)CC3)cc(OCC)c2)c1
(b) CCOc1cncc(-c2cc(C(=O)N3CCN(c4ccc(C(=O)NS(=O)(=O)c5ccc(NCCSc6ccccc6)c(C(F)(F)F)c5)cc4)CC3)cc(C(C)(C)C)c2)c1
Between a and b , which one shows the larger ASMS ratio (%) n = 1 value? Give the label under which the chosen entry appears.
b
(b: 7.1%, a: 0.0%)
